- Test system: CCRF-CEM
- test: NCI tumour cell line growth inhibition, 48 h
Active and inactive are the calls of the source. Rule as the data show it: active = GI50 up to about 1.1 µM and inactive = higher.
One label from this list, please: Y (active), N (inactive)

Cn1c(=O)c2nc(-c3ccc(Cl)cc3)oc2n(C)c1=O    N
O=C(O)CCN(CCC(=O)O)c1ccc(/C=C2\SC(=S)NC2=O)cc1    N
CC(=O)Nc1ccc(C(=O)NN2C(=O)C(Cl)C2c2cc(Br)cc(Br)c2O)cc1 (stereo not given)    N
COc1ccc2nc3cccc([N+](=O)[O-])c3c(NCCO)c2c1    Y
CCOC(=O)C1(Br)C(c2ccccc2)NC(=O)NC1(C)Br (stereo not given)    N

Short answer needed: outcome of this test for COc1ccc(NC(=O)C2C(=O)N(c3ccc(OC)cc3)C(=O)/C2=N\N)cc1 (stereo not given) ?
N

Short answer needed: outcome of this test for COc1ccc(C2N(c3ccc(F)cc3)C(=O)N3C(c4ccc(OC)cc4)N(c4ccc(F)cc4)C(=O)N23)cc1 (stereo not given) ?
N

Short answer needed: outcome of this test for OCC1OC(c2nc(C3=NCCCN3)cs2)C(O)C1O (stereo not given) ?
N

Short answer needed: outcome of this test for CC(Cc1ccc(Cl)cc1Cl)NO (stereo not given) ?
N

Short answer needed: outcome of this test for `CC(C)(C)c1ccc(O)c(CN(Cc2cc(C(C)(C)C)ccc2O)c2ccccc2)c1` ?
N

Short answer needed: outcome of this test for `O=C1CCCCC(=O)Nc2ccccc2N1` ?
N

Short answer needed: outcome of this test for `NCOC(=O)Cc1ccc(Br)cc1` ?
N

====

- System: OVCAR-4
- test: NCI tumour cell line growth inhibition, 48 h
The source made the active and inactive calls. Rule as the data show it: active = GI50 up to about 1.1 µM and inactive = higher.
One label from this list, please: 1 (yes) (active), 0 (no) (inactive)

Use these answered entries as a reference point.
O=C(O)c1cscc1Cc1cccs1    0 (no)
COP(=O)(Cc1ccccc1)Cc1ccccc1    0 (no)

Short answer needed: outcome of this test for `O=c1n(CCCN2CCN(c3cccc(Cl)c3)CC2)nc2n1-c1ccc3ccccc3c1SC2` ?
0 (no)

Short answer needed: outcome of this test for CC[C@](C)(O)C(=O)O[C@H]1C(=O)O[C@@H]2C[C@H]3C(C)=CC(=O)[C@@H](O)[C@]3(C)[C@H]3[C@@]4(O)OC[C@]32[C@@H]1[C@@H](C)[C@H]4O [GLAUCARUBINONE] ?
1 (yes)

Short answer needed: outcome of this test for `COC(=O)Cn1c(=O)oc2nc(-c3ccccc3)cc(C(F)(F)F)c21` ?
0 (no)

====

- Tested on: DLD-1
- test: NCI tumour cell line growth inhibition, 48 h
Activity calls are given as the source filed them. No stated cut-off is given here; in the data, active = GI50 up to about 1.1 µM and inactive = higher.
testReadout: GI50

A selection of reference data follows.
CCCCC#C[I+]c1ccccc1    19.5 µM (inactive)
C/C=C(\C)c1cc(O)c(C)c2c1Oc1cc(O)c(Cl)c(C)c1C(=O)O2    17.4 µM (inactive)
CCOC(=O)C1(Br)C(c2ccccc2)NC(=O)NC1(C)Br (configuration not stated)    55.7 µM (inactive)
OCC1OC(c2nc(C3=NCCCN3)cs2)C(O)C1O (configuration not stated)    > 100 µM (inactive)
CCCCCCCC/C=C1\CCC(CN2CCOCC2)C1=O (configuration not stated)    2.8 µM (inactive)
Oc1cc(-c2cccc(Br)c2)nc2cc3c(cc12)OCO3    3.16 µM (inactive)

Which GI50 is reported for this compound? `CN(C)c1ccc(/C=C/C(=O)O)cc1`
> 100 µM (inactive)

Which GI50 is reported for this compound? O=C1c2ccccc2CC1C1(O)C(=O)Nc2c(Cl)cc(Cl)cc21 (configuration not stated)
53.1 µM (inactive)
